Target System: T1, human nectin-4 on cells (human, UniProt Q96NY8 32-510)
T1 construct: also called Nectin-4 receptor
T1 sequence: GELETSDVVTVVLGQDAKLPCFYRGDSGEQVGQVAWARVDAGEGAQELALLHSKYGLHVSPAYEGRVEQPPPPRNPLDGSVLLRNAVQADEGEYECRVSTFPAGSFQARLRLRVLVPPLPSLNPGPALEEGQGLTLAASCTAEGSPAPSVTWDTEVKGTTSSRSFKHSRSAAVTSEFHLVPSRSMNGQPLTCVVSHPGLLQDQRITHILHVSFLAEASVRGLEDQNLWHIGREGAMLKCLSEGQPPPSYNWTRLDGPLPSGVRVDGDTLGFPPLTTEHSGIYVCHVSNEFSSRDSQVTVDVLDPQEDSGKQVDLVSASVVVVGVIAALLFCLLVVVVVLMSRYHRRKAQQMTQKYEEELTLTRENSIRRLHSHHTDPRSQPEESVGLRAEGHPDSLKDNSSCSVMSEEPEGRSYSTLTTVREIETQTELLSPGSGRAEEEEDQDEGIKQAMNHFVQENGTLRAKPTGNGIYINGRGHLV
Method Description: flow cytometry, NCI-H1781 cells (low endogenous nectin-4)
pEC50: −log10 of the molar value.
Measured Property: pEC50

>>> reported_value("Ab3 (antibody, human IgG1, kappa, L234A L235A, V domains shown, Unconjugated antibody; also called Antibody 3; nectin-4 antibody Ab3) VH: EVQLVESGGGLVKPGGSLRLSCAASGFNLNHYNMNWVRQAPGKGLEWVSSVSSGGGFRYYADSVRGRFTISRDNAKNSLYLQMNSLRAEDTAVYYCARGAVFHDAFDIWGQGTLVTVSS VL: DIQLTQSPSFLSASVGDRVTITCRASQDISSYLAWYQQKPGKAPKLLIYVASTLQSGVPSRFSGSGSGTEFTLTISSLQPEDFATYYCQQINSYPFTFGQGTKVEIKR")
10.00
>>> reported_value("Ab1a (antibody, human IgG1, kappa, L234A L235A, V domains shown, Unconjugated antibody; also called nectin-4 antibody Ab1a) VH: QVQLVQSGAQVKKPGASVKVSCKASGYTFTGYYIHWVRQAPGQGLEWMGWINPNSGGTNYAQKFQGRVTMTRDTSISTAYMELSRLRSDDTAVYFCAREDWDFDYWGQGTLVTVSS VL: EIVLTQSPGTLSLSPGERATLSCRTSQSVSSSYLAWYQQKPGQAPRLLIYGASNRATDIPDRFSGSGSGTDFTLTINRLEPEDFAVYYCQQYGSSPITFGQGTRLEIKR")
9.70
>>> reported_value("Ab7 (antibody, human IgG1, lambda, L234A L235A, V domains shown, Unconjugated antibody; also called Antibody 7; nectin-4 antibody Ab7) VH: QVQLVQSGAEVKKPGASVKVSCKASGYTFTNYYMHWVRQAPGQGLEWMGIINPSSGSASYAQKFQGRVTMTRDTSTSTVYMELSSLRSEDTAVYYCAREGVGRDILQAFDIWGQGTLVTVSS VL: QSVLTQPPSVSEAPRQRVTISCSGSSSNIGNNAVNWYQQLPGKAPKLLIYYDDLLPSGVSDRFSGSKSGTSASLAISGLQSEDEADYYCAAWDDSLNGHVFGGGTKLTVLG")
10.05

Source: patent US20250000991A1
